meta.source: patent US20190233498A1

// reported koff for each item listed
Target: T1, human PACAP38 (human, not fully specified; C-terminal lysine is amidated; N-terminal or C-terminal biotin in the HTRF and PC-12 cell binding assays)
T1 construct: synthetic peptide, bought; also called huPACAP (1-38)
T1 peptide: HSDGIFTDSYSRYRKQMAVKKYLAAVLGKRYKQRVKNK
Assay: SPR, Ab immobilised
Hi! Could you send only the number? It should be in s⁻¹, unit omitted.

anti-PACAP antibody Ab19 (antibody, human IgG1, kappa, N297A, V domains shown, full-length rabbit/human chimeric antibody) VH: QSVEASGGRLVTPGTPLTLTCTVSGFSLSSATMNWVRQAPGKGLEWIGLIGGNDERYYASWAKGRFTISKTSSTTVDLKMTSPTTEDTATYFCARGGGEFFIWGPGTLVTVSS VL: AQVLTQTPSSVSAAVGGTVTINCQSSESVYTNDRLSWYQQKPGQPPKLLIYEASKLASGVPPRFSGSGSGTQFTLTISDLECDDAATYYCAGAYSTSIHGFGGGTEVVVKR ... 2.5e-05

Now consider a different binder.
input: Query koff for anti-PACAP antibody Ab13 (antibody, human IgG1, kappa, N297A, V domains shown, full-length rabbit/human chimeric antibody) VH: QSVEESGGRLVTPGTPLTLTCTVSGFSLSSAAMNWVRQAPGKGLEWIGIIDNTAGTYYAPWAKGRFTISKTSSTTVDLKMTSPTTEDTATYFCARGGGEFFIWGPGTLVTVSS VL: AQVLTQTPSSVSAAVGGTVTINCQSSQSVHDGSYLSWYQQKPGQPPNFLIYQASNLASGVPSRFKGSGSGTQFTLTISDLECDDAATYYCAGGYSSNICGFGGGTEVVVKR
output: 2.7e-05
